Catalogue of sequences with associated self-splicing fitness (ln)
# protocol: self-splicing fitness, log relative to wild type (ln ratio); higher = more splicing; Tetrahymena group I intron in knt gene, E. coli kanamycin selection, DiMSum; sequences stand for … in CUCUCU…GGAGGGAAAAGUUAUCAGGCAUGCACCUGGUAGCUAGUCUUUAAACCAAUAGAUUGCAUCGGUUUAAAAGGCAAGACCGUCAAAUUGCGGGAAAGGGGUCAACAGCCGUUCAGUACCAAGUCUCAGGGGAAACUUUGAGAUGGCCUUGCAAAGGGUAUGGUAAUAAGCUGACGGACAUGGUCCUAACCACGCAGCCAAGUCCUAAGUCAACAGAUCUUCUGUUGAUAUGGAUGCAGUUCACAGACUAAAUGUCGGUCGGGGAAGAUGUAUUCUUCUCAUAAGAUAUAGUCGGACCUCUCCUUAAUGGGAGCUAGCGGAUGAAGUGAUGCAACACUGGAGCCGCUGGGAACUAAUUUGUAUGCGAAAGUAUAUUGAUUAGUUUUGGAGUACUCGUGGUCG;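 note: selection with 25 µg/mL kanamycin versus none on LB agar overnight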
# conditionDescription: 30 °C
observationType: self-splicing fitness (ln)

| recordSequence | observedValue |
| --- | --- |
| CCUAAGCAAUAUUACGAAGU | -2.62 |
| CCGAAGCAAUAUUACGUAGA | -3.45 |
| GGGGAGCAAUAUUACGGACU | 0.0915 |
| CGUCAGCAAUAUUACGCUCU | -1.14 |
| GGCUAGCAAUAUUACGGCAA | 0.218 |
| UUCCAGCAAUAUUACGUCAU | -3.65 |
| CUCAAGCAAUAUUACGGCCC | -2.42 |
| UGGCAGCAAUAUUACGUUGA | -1.43 |
| GCCUAGCAAUAUUACGGGAA | -0.327 |
| UAGAAGCAAUAUUACGUCUG | -1.12 |
| CCCCAGCAAUAUUACGGACC | -4.08 |
| CCUAAGCAAUAUUACGACAC | -3.33 |
| GACAAGCAAUAUUACGUAGA | -2.31 |
| CAUUAGCAAUAUUACGACAG | 0.268 |
| ACCGAGCAAUAUUACGUAUG | -3.56 |
| UCUAAGCAAUAUUACGGUCU | -3.41 |
